Parameter: inhibition. Scope: all listed entries.
molecular target: D(2) dopamine receptor (Homo sapiens) (UniProt P14416); test: HTS Assay for Allosteric Antagonists of the Human D2 Dopamine Receptor: Primary Screen for Antagonists; conditions: HEK293 TREx D2 cells, calcium flux, dopamine EC80; at 10 µM; hits give high values; further: 0% is about no effect
Sequence (P14416 whole entry, looked up): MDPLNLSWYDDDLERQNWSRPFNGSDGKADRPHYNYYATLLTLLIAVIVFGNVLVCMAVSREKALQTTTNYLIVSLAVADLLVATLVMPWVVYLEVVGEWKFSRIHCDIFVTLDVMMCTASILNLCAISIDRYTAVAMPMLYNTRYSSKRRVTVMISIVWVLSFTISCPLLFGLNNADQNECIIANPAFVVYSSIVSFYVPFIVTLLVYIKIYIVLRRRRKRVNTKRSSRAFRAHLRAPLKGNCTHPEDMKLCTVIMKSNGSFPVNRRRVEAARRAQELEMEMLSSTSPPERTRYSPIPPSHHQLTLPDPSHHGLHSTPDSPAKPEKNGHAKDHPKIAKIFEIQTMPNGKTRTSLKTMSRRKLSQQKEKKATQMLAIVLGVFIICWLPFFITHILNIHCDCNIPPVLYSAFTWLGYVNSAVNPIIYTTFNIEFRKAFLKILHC
Among all 340,000 compounds or so, about 6,900 (2%) were called active. What follows is part of a selection rich in actives, with near analogues and random picks from the rest.
The reply should contain only the number, in %.

Below, each entry is followed by its recorded inhibition result.
COc1ccc(F)cc1C(=O)COC(=O)c1n[nH]c(=O)c2ccccc12    -10.9
CCOCCn1[nH]c2ccccc2c1=O    9.72
CCN(CC(=O)Nc1cccc(S(=O)(=O)N2CCCCC2)c1)Cc1ccccc1    0.844
COc1ccc(NS(=O)(=O)c2cc(NC(=O)COc3ccccc3F)ccc2OC)cc1    -11
NS(=O)(=O)c1ccc(NC(=O)COC(=O)c2ccco2)cc1    38.5
CCOc1ccc(CCNC(=O)CN2C(=O)NC3(CCc4ccccc43)C2=O)cc1OCC (stereo not given)    1.52
C[C@@H]1NC(=O)[C@@]2(C)[C@@H](c3ccccc3)[C@H]3COc4ccccc4[C@@H]3N2C1=O    -7.78
O=C(COC(=O)CNC(=O)c1ccco1)Nc1ccc(F)cc1    -3.88
Cc1ccc(S(=O)(=O)N2[C@@H](c3ccccc3F)C(C(=O)O)=CC[C@H]2c2ccc(Cl)cc2)cc1    16

Attention now turns to another entry.
Problem: Fill in the blank: the reported inhibition of CN(C(=O)Cn1nnc(-c2ccc(F)cc2)n1)C1CCS(=O)(=O)C1 (stereo not given) is ____.
Solution: 9.49

###

// values below are reported inhibition
target: D(2) dopamine receptor (Homo sapiens); experiment: HTS Assay for Allosteric Antagonists of the Human D2 Dopamine Receptor: Primary Screen for Antagonists; details: HEK293 TREx D2 cells, calcium flux, dopamine EC80; at 10 µM; hits give high values; further: 0% is about no effect
The campaign covered roughly 340,000 compounds. About 6,900 (2%) were called active. This is one part of a sample in which actives are shown more often than they occur.
# number only, unit % dropped from output

Examples with answers:
O=C(Cc1csc(Nc2nc(=S)[nH]c3ccccc23)n1)NCCCN1CCN(c2cccc(Cl)c2)CC1    69.4
Cc1cccc(-n2c(Cc3cc(=O)[nH]c(=O)[nH]3)nnc2SCC(=O)Nc2cccc(C(F)(F)F)c2)c1    36.6
COc1ccccc1CNC(=O)COC(=O)c1sc(C)nc1C    16.2
COc1ccc(CNC(=O)C(NS(=O)(=O)c2cccc3nsnc23)C(C)C)cc1 (stereo unspecified)    7.26
Cc1cccc(-n2c(Cc3cc(=O)[nH]c(=O)[nH]3)nnc2SC(C)C)c1    -16

Problem: Value lookup for inhibition; key = O=C(CCCNS(=O)(=O)c1cccc2nsnc12)NCCN1CCN(c2ccccc2F)CC1
Solution: 78.8

Problem: Recorded inhibition for CC1CCCCN1C(=O)CCS(=O)(=O)Cc1ccccc1 (stereo unspecified) , please?
Solution: 3.72

Problem: Could you share which inhibition value was measured for Cc1cc(C(=O)COc2ccc(Br)cc2F)c(C)n1C1CC1 ?
Solution: -10.6

Problem: So what's the measured inhibition for this one? N#CCCCn1c(O)c(N=NC(=O)C(O)c2ccccc2)c2ccccc21 (stereo unspecified)
Solution: 38.5

Problem: Recorded inhibition of CC1CCCCN1C(=S)NCc1ccccc1 (stereo unspecified) , please.
Solution: 31.9

Problem: Endpoint output: inhibition of O=C(C(NS(=O)(=O)c1cccc2nsnc12)c1ccccc1)N1CCN(c2ccccc2)CC1 (stereo unspecified) . Value?
Solution: 1.2

Problem: Reported inhibition for CCN1CCN(C(=O)c2ccccc2N(C)S(=O)(=O)c2ccc(C)cc2)CC1 : what is it?
Solution: 40.9

Problem: Value lookup for inhibition; key = CCCCn1c(O)c(N=NC(=O)Cn2c(C(F)(F)F)nc3ccccc32)c2ccccc21
Solution: 16.8

Problem: Can you look up the measured inhibition of CC(=O)Nc1cccc(C(=O)OCC(=O)c2ccc3c(c2)OCO3)c1 for me?
Solution: 13.5

Problem: Look up inhibition: Cc1n[nH]c(=O)c2c(NC(=O)CSc3cc(Cl)ccc3Cl)oc(C)c12
Solution: 10

Problem: For the compound C/C(=N\NC(=S)NCc1ccccc1)C1CCCCC1 , what inhibition is on record?
Solution: -10.6

Problem: # get_value(readout='inhibition', item= COC(=O)Cn1c(O)c(N=NC(=O)OC)c2ccccc21 )
Solution: 11.2

Problem: Need inhibition of CC(=O)Nc1ccc(NC(=O)C(NS(=O)(=O)c2ccc3c(c2)OCCO3)C(C)C)cc1 (stereo unspecified) , thanks.
Solution: -6.92

Problem: Endpoint output: inhibition of COc1ccc(OCC(=O)NNC(=O)c2cccc(C)c2)cc1 . Value?
Solution: 1.66

Problem: Any idea what its inhibition is? The compound is Cc1ccc(S(=O)(=O)N2CCCCC2)cc1NC(=O)[C@@H]1CCCN1C(=O)c1cccs1
Solution: -14.3

Problem: Return reported inhibition; argument: COCCn1cnnc1SCC(=O)Nc1cccc(S(=O)(=O)N2CCCCC2)c1
Solution: 3.75

Each recorded value in this set is attributed to PubChem BioAssay AID485344.
